RUN DESCRIPTION: qHTS of pediatric cancer cell lines to identify multiple opportunities for drug repurposing: Primary screen for LAN-5 cells (AID 1347100)
CONDITION SET: LAN-5 neuroblastoma viability, CellTiter-Glo luminescence, 48 h; series mostly up to 46 µM
Inconclusive results are not listed. Calls of active or inactive are those of the source. The call rests on the fitted dose curve; in most records, active means well fitted cell-killing curve with a large enough effect; inconclusive means small, poorly fitted or top-dose-only effect; inactive means no such curve, though single readings can be large or run the other way.
Could you please pick one outcome from this set? T (active), F (inactive)

# CPD SMILES, ASSIGNED CLASS
measured = [
    ("Nc1nc2c(c(=O)[nH]1)N(C=O)[C@H](CNc1ccc(C(=O)N[C@@H](CCC(=O)O)C(=O)O)cc1)CN2", "T"),
]

Lookup: Could you check what this test reported for NC(=O)N1CCC(CC(=O)N2CCC([C@H]3c4ncc(Br)cc4CCc4cc(Cl)cc(Br)c43)CC2)CC1 ?
Found: T

Lookup: Could you check what this test reported for Cc1cnn(C)c1C(=O)Nc1cc(Nc2ccc3c(C=Cc4ccccn4)n[nH]c3c2)ccc1F ?
Found: T

Lookup: Could you check what this test reported for NC(=O)c1ncn([C@@H]2O[C@H](CO)[C@@H](O)[C@@H]2O)c1N ?
Found: F

Lookup: Could you check what this test reported for CC[C@H]1OC(=O)[C@H](C)[C@@H](O[C@H]2C[C@@](C)(OC)[C@@H](O)[C@H](C)O2)[C@H](C)[C@@H](O[C@@H]2O[C@H](C)C[C@H](N(C)C)[C@@H]2O)[C@](C)(OC)C[C@@H](C)C(=O)[C@H](C)[C@@H](O)[C@]1(C)O ?
Found: F

----------
RUN DESCRIPTION: qHTS Screen of the MIPE 4.0 Collection Against Ewings Sarcoma (EW8) (AID 1259255); further: nearly all actives have a fitted effect of over 35% in size
CONDITION SET: EW8 Ewing sarcoma viability, CellTiter-Glo, 48 h; series mostly up to 45.8 µM
Inconclusive results are not listed. The source made the active and inactive calls. Calls come from the whole dose curve; as a rule, active = well fitted inhibition curve with a large enough effect; inconclusive = small, poorly fitted or top-dose-only effect; inactive = no such curve, though single readings can be large or run the other way.
Could you please pick one outcome from this set? active, inactive

Use the examples below as a reference point.
# COMPOUND, ASSIGNED CLASS
rows = [
    ("Nc1ccn(C2CO[C@H](CO)O2)c(=O)n1 (stereo not given in full)", "inactive"),
    ("O=C1c2c(O)cccc2[C@@H]([C@@H]2O[C@H](CO)[C@@H](O)[C@H](O)[C@H]2O)c2cc(CO)cc(O)c21", "inactive"),
    ("c1cncc(CN2CCC(n3ncc4c(N5CCOCC5)nc(-c5ccc6[nH]ccc6c5)nc43)CC2)c1", "active"),
    ("C=CC(=O)N1CCc2ccc(-n3c(=O)ccc4cnc5ccc(-c6cnn(C)c6)cc5c43)cc21", "active"),
]

Lookup: Could you check what this test reported for COc1cc(C)c(Sc2cnc(NC(=O)c3ccc(CNC(C)C(C)(C)C)cc3)s2)cc1C(=O)N1CCN(C(C)=O)CC1 (stereo not given) ?
Found: active

----------
RUN DESCRIPTION: Quantitative High-Throughput drug screen in 47 multiple myeloma cell lines against the NCATS MIPE library collection: XG1_PLB cell viability assay (AID 1919866); further: nearly all actives have a fitted effect of over 35% in size
CONDITION SET: CellTiter-Glo ATP, 48 h; series mostly up to 45.8 µM
Inconclusive results are not listed. Activity calls are given as the source filed them. Calls follow the shape of the dose curve; as a rule, active = well fitted cell-killing curve with a large enough effect; inconclusive = small, poorly fitted or top-dose-only effect, or effect the other way; inactive = no such curve, though single readings can be large or run the other way.
Could you please pick one outcome from this set? T (active), F (inactive)

Use the examples below as a reference point.
# COMPOUND, ASSIGNED CLASS
rows = [
    ("CN1[C@H]2CC(OC(=O)[C@@H](CO)c3ccccc3)C[C@H]1[C@H]1O[C@H]12 (stereo partly specified)", "F"),
    ("CCCCC(=O)O[C@]1(C(=O)CO)[C@@H](C)C[C@H]2[C@@H]3CCC4=CC(=O)C=C[C@]4(C)[C@@]3(F)[C@@H](O)C[C@@]21C", "F"),
    ("CCS(=O)(=O)Nc1ccc2[nH]c(O)c(C(=Nc3ccc(CN4CCCCC4)cc3)c3ccccc3)c2c1", "T"),
    ("C[C@@H]1C(=O)O[C@H]2CC34[C@H]5C[C@@H](C(C)(C)C)C36[C@H](OC(=O)[C@@H]6O)O[C@@]4(C(=O)O5)[C@]21O (stereo partly specified)", "F"),
    ("O=C1NC(=O)[C@@H](c2cn3c4c(cccc24)CCC3)[C@H]1c1c[nH]c2ccccc12", "T"),
]

Could you now consider this next compound?
Lookup: Could you check what this test reported for NC(=NCCCCCCN=C(N)N=C(N)Nc1ccc(Cl)cc1)N=C(N)Nc1ccc(Cl)cc1 ?
Found: T
